- System: MARIMO
- Experimental Protocol: cell viability relative to vehicle control; higher = less cytotoxic;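 also: after 48 h exposure read by CellTiter-Glo luminescence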
- Reported Conditions: 10 µM; SRSF2 genotype: SRSF2 wt/wt
Catalogue of cell viability values

Study these solved cases before continuing.
C[C@@]1(c2cc(-c3cncnc3)c(F)cc2F)CCSC(N)=N1; 105%
COC(=O)[C@@]1(C)CC[C@]2(C(=O)O)CC[C@]3(C)C(=CC[C@@H]4[C@@]5(C)C[C@H](O)[C@H](O[C@@H]6OC[C@@H](O[C@@H]7O[C@H](CO)[C@@H](O)[C@H](O)[C@H]7O)[C@H](O)[C@H]6O)[C@@](C)(CO)[C@@H]5CC[C@]43C)[C@@H]2C1 [Esculentoside A]; 108%

Report cell viability under test system MARIMO for Nc1nccc(Oc2ccc(NC(=O)c3c[nH]cc(-c4ccc(F)cc4)c3=O)cc2F)c1Cl . 110%

###

- Tested on: MARIMO
- Experimental Protocol: cell viability relative to vehicle control; higher = less cytotoxic
- Reported Conditions: 10 µM; SRSF2 genotype: SRSF2 wt/wt
Readout Type: cell viability (%)
Your answer is read as %, so omit the unit and give the number.

Study these solved cases before continuing.
O=C(O)Cc1ccc2c(c1)C(=O)c1ccccc1CO2; 105
C[C@H](Nc1ncnc2[nH]cnc12)c1cc2ccc(F)cc2nc1-c1ccccn1; 85
C[C@H]1COC2(CCN(c3nc(=O)c4cc(C(F)(F)F)cc([N+](=O)[O-])c4s3)CC2)O1 (racemic) [BTZ043 racemate]; 86.7

Output measured cell viability for this item: Nc1nc(=O)[nH]cc1F 105

Output measured cell viability for this item: O=C(O)/C=C/c1ccc(O)cc1 110

Output measured cell viability for this item: OCc1cc(C(O)CNCCCCCCOCCCCc2ccccc2)ccc1O (centres undefined) 68.6

Output measured cell viability for this item: CC1=C(C(=O)OC2CCCCC2)C(c2ccc([N+](=O)[O-])cc2)C2=C(CC(C)(C)CC2=O)N1 (centres undefined) 66

Output measured cell viability for this item: CC1C(=O)OC2C(O)C34C5CC(C(C)(C)C)C36C(OC(=O)C6O)OC4(C(=O)O5)C12O (centres undefined) [Ginkgolide B] 109

Output measured cell viability for this item: Cc1nc(-c2cccnc2)sc1C(=O)Nc1ccccc1-c1cn2c(CN3CCOCC3)csc2n1 116

###

- Tested on: MOLM14
- Experimental Protocol: cell viability relative to vehicle control; higher = less cytotoxic
- Reported Conditions: 10 µM; SRSF2 genotype: SRSF2 P95H/wt
Readout Type: cell viability (%)
Your answer is read as %, so omit the unit and give the number.

Study these solved cases before continuing.
O=C(O)c1ccc(Cl)cc1O [4-Chloro-2-hydroxybenzoic acid]; 101
CO[C@@H]1[C@H](OC(=O)/C=C/C=C/C=C/C=C/C(=O)O)CC[C@]2(CO2)[C@H]1[C@@]1(C)O[C@@H]1CC=C(C)C [Fumagillin]; 50.9
Cn1cnc2c(F)c(Nc3ccc(Br)cc3F)c(C(=O)NOCCO)cc21; 45.8

Now let's try a different one.
Output measured cell viability for this item: O=C1C(=C(O)C=Cc2ccc(O)cc2)C(O)=C([C@@H]2O[C@H](CO)[C@@H](O)[C@H](O)[C@H]2O)C(=O)C1(O)[C@@H]1O[C@H](CO)[C@@H](O)[C@H](O)[C@H]1O (some centres undefined) [Hydroxy safflor yellow A] 85.4

###

Catalogue of cell viability values
- Tested on: MOLM14
- Experimental Protocol: cell viability relative to vehicle control; higher = less cytotoxic
- Reported Conditions: 10 µM; SRSF2 genotype: SRSF2 P95H/wt
Your answer is read as %, so omit the unit and give the number.

COc1cc2ncnc(Oc3ccc(CC(=O)Nc4cnn(C(C)C)c4)cc3)c2cc1OC; 16.1
O=C(NO)c1cccc(C(=O)NCCc2ccccc2)c1; 89.6
CN1CCN(c2cccc(Nc3nc4c(-c5ccc(S(C)(=O)=O)cc5)cccn4n3)c2)CC1; 3.24
N#CC(c1ccc(Cl)cc1)c1c(Cl)cc(-n2ncc(=O)[nH]c2=O)cc1Cl (stereo not drawn); 84.4
CC1(C)CC[C@]2(C(=O)O)CC[C@]3(C)C(=CC[C@@H]4[C@@]5(C)CC[C@H](O)C(C)(C)[C@@H]5CC[C@]43C)[C@@H]2C1; 85.6
C=CCc1ccc(O)c(-c2ccc(O)c(CC=C)c2)c1; 85.5
CCc1nc(-c2cccc(C)c2)c(-c2ccnc(NC(=O)c3ccccc3)c2)s1; 76.5

Now let's try a different one.
Report cell viability under test system MOLM14 for C[C@]12C=CC(=O)N[C@@H]1CC[C@@H]1[C@@H]2CC[C@]2(C)[C@@H](C(=O)Nc3cc(C(F)(F)F)ccc3C(F)(F)F)CC[C@@H]12 [Dutasteride] . 96

###

- Tested on: MARIMO
- Experimental Protocol: cell viability relative to vehicle control; higher = less cytotoxic
- Reported Conditions: 10 µM; SRSF2 genotype: SRSF2 wt/wt
Structures can show the parent of a compound that is named as a salt.
Readout Type: cell viability (%)
Your answer is read as %, so omit the unit and give the number.

Study these solved cases before continuing.
O=C(NC1(c2ccccc2)CC1)c1c(CN2CCC(N3CCCCC3)CC2)c(-c2cccc(C(F)(F)F)c2)nc2cc(Br)ccc12; 58.4
CC(C)CCNc1ncccc1C(=O)N1CCN(Cc2ccccc2)CC1; 105
COc1cc(NC(=O)c2ccc(-c3ccc(Cl)cc3)o2)cc(OC)c1; 105
CO[C@H]1C[C@@H]2CC[C@@H](C)[C@@](O)(O2)C(=O)C(=O)N2CCCC[C@H]2C(=O)O[C@H]([C@H](C)C[C@@H]2CC[C@@H](OCCO)[C@H](OC)C2)CC(=O)[C@H](C)/C=C(\C)[C@@H](O)[C@@H](OC)C(=O)[C@H](C)C[C@H](C)/C=C/C=C/C=C/1C [Everolimus (RAD001)]; 71.6
Cc1ccc(Nc2ncc3c(n2)N(C)C(=O)N(c2cc(NC(=O)c4cccc(C(F)(F)F)c4)ccc2C)C3)cn1; 37.4
COc1ccc2cc([C@H](C)C(=O)O)ccc2c1 [Naproxen Sodium]; 97.2
CCCC(=O)Nc1ccc(OCC(O)CNC(C)C)c(C(C)=O)c1 (stereo unspecified) [Acebutolol HCl]; 95.1
Nc1c(Br)cc(Br)cc1CN[C@H]1CC[C@H](O)CC1 [Ambroxol HCl]; 102

Output measured cell viability for this item: CC(C)OC(=O)OCOP(=O)(CO[C@H](C)Cn1cnc2c(N)ncnc21)OCOC(=O)OC(C)C [Tenofovir Disoproxil Fumarate] 79.2

Output measured cell viability for this item: CCCCCCCCCCCCCCCCCC(=O)O 109

###

Catalogue of cell viability values
- System: OCI-AML2
- Experimental Protocol: cell viability relative to vehicle control; higher = less cytotoxic
- Reported Conditions: 10 µM; SRSF2 genotype: wt/wt

Output measured cell viability for this item: CC1=CC(=O)CC(C)(C)C1=O [Ketoisophorone] 108%

Output measured cell viability for this item: O[C@@H](COc1cccc2ncccc12)CN1CCN([C@@H]2c3ccccc3[C@@H]3[C@H](c4ccccc42)C3(F)F)CC1 40.7%

Output measured cell viability for this item: O=c1ccoc2cc(O)ccc12 [7-Hydroxy-4-chromone] 96.3%

Output measured cell viability for this item: Cn1cc(-c2ccc3c(c2)CCN3C(=O)Cc2cccc(C(F)(F)F)c2)c2c(N)ncnc21 28.8%

Output measured cell viability for this item: CCCCN(Cc1ccc(C(=O)NO)cc1)C(=O)Nc1ccccc1 [Nexturastat A] 7.67%

###

- Test system: MOLM14
- Experimental Protocol: cell viability relative to vehicle control; higher = less cytotoxic
- Reported Conditions: 10 µM; SRSF2 genotype: SRSF2 wt/wt
Catalogue of cell viability values
Your answer is read as %, so omit the unit and give the number.

Study these solved cases before continuing.
NC(=O)c1cnccn1 [Pyrazinamide (Pyrazinoic acid amide)]; 105
Cn1c(Nc2ccc(C(F)(F)F)cc2)nc2cc(Oc3ccnc(-c4ncc(C(F)(F)F)[nH]4)c3)ccc21; 50.1
O=C(O)CC(O)(CC(=O)OCc1ccc(O[C@@H]2O[C@H](CO)[C@@H](O)[C@H](O)[C@H]2O)cc1)C(=O)OCc1ccc(O[C@@H]2O[C@H](CO)[C@@H](O)[C@H](O)[C@H]2O)cc1 (stereo partly specified); 105
CC(C)n1c(=O)n(C)c2cnc3cc(F)c(-c4ccc(OCCCN5CCCCC5)nc4)cc3c21; 32
C/C(=C\CO)CCC[C@H](C)CCC[C@H](C)CCCC(C)C; 92.6

Output measured cell viability for this item: CN(C(=O)CNC(=O)/C=C/c1cccc(Cl)c1)C1CCS(=O)(=O)CC1 86

Output measured cell viability for this item: COc1ccc(Cn2c3ncnc4c(ncn4Cc4ccc(OC)cc4)c-3nc2=O)cc1 2.32

Output measured cell viability for this item: CC1(C)CCCC2(C)C1CCC1(C)OC(=O)CC12 (stereo unspecified) [Sclareolide (Norambreinolide)] 106

###

- System: OCI-AML2
- Experimental Protocol: cell viability relative to vehicle control; higher = less cytotoxic
- Reported Conditions: 10 µM; SRSF2 genotype: wt/wt
Structures can show the parent of a compound that is named as a salt.
Catalogue of cell viability values
Your answer is read as %, so omit the unit and give the number.

OC[C@H]1O[C@@H](O[C@@H]2OC=C[C@H]3[C@H](O)[C@@H]4O[C@]4(CO)[C@@H]23)[C@H](O)[C@@H](O)[C@@H]1O; 106
COc1cc2nc(N3CCCC3)nc(NCCCCCN3CCCC3)c2cc1OC; 0.37
CCN(CC)CCN(Cc1ccc(-c2ccc(C(F)(F)F)cc2)cc1)C(=O)Cn1c(SCc2ccc(F)cc2)nc(=O)c2c1CCC2; 0.29
CC(C)[C@H](N)C(=O)OCCOCn1cnc2c(=O)nc(N)[nH]c21 [Valaciclovir HCl]; 112
C=C1C2CCC(C2)C1(C)CCC=C(C)CO (centres undefined); 101
C=CC(=O)N1C[C@H](Nc2ncnc3[nH]ccc23)CC[C@@H]1C; 91.6
O=c1cc(N2CCOCC2)oc2c(-c3ccccc3)cccc12; 49.4
COc1cc(O)cc2c1C(=O)C[C@@H](c1ccccc1)O2; 106

Now let's try a different one.
Output measured cell viability for this item: Cc1cc(Nc2cc(Cl)nc(Oc3ccc([N+](=O)[O-])cc3)n2)n[nH]1 47.9
